# target_desc: UniProt P16591
# Sequence (P16591 whole entry): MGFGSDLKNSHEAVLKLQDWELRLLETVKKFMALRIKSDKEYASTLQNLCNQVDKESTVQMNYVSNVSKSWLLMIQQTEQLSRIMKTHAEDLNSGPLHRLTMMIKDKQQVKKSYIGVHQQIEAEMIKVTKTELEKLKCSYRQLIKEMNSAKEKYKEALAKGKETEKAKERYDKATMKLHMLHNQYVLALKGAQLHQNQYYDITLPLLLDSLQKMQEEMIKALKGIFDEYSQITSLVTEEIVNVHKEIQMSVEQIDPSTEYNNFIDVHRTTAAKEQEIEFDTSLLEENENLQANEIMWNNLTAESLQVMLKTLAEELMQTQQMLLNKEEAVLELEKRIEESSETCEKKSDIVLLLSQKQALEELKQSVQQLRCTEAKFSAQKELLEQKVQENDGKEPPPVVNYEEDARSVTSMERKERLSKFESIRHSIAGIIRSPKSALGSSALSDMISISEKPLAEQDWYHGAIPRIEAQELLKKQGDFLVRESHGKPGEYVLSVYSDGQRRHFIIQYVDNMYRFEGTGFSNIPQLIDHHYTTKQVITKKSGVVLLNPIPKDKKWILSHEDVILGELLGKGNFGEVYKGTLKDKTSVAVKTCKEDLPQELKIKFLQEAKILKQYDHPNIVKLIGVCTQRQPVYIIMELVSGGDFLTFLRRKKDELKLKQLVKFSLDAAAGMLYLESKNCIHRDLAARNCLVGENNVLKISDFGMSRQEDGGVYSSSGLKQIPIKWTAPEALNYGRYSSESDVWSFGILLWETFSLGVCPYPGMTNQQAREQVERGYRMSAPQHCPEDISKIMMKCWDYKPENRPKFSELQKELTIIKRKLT
The source made the active and inactive calls.
Classes to choose from: active, inactive

| compound | cat |
| --- | --- |
| CCCS(=O)(=O)Nc1ccc(F)c(C(=O)c2c[nH]c3ncc(-c4ccc(Cl)cc4)cc23)c1F [VEMURAFENIB] | inactive |

Q: How did this test come out for O=C(c1ccc(F)c(F)c1Nc1ccc(I)cc1F)N1CC(O)([C@@H]2CCCCN2)C1 [COBIMETINIB] ?
Ans: inactive

Q: How did this test come out for C[C@@H](c1ccc2nccn2c1)n1nnc2ncc(-c3cnn(C)c3)nc21 [SAVOLITINIB] ?
Ans: inactive

Q: How did this test come out for C1=C/COCc2cc(ccc2OCCN2CCCC2)Nc2nccc(n2)-c2cccc(c2)COC/1 [PACRITINIB] ?
Ans: active

Q: How did this test come out for Cn1ncc(Cl)c1-c1cc(C(=O)N[C@H](CN)Cc2cccc(F)c2)sc1Cl [AFURESERTIB] ?
Ans: inactive

Q: How did this test come out for Cc1ccc(S(=O)(=O)Nc2nc3ccccc3nc2Nc2ccc3nsnc3c2)cc1 ?
Ans: inactive

Q: How did this test come out for CN1N=C(N)c2cn([C@@H]3O[C@H](COP(=O)(O)O)[C@@H](O)[C@H]3O)c3ncnc1c23 [TRICIRIBINE PHOSPHATE] ?
Ans: inactive

----------
# target_desc: Myosin light chain kinase, smooth muscle (Homo sapiens); also: in the data inactive means no Kd found up to 30 µM
# Sequence (Q15746 whole entry): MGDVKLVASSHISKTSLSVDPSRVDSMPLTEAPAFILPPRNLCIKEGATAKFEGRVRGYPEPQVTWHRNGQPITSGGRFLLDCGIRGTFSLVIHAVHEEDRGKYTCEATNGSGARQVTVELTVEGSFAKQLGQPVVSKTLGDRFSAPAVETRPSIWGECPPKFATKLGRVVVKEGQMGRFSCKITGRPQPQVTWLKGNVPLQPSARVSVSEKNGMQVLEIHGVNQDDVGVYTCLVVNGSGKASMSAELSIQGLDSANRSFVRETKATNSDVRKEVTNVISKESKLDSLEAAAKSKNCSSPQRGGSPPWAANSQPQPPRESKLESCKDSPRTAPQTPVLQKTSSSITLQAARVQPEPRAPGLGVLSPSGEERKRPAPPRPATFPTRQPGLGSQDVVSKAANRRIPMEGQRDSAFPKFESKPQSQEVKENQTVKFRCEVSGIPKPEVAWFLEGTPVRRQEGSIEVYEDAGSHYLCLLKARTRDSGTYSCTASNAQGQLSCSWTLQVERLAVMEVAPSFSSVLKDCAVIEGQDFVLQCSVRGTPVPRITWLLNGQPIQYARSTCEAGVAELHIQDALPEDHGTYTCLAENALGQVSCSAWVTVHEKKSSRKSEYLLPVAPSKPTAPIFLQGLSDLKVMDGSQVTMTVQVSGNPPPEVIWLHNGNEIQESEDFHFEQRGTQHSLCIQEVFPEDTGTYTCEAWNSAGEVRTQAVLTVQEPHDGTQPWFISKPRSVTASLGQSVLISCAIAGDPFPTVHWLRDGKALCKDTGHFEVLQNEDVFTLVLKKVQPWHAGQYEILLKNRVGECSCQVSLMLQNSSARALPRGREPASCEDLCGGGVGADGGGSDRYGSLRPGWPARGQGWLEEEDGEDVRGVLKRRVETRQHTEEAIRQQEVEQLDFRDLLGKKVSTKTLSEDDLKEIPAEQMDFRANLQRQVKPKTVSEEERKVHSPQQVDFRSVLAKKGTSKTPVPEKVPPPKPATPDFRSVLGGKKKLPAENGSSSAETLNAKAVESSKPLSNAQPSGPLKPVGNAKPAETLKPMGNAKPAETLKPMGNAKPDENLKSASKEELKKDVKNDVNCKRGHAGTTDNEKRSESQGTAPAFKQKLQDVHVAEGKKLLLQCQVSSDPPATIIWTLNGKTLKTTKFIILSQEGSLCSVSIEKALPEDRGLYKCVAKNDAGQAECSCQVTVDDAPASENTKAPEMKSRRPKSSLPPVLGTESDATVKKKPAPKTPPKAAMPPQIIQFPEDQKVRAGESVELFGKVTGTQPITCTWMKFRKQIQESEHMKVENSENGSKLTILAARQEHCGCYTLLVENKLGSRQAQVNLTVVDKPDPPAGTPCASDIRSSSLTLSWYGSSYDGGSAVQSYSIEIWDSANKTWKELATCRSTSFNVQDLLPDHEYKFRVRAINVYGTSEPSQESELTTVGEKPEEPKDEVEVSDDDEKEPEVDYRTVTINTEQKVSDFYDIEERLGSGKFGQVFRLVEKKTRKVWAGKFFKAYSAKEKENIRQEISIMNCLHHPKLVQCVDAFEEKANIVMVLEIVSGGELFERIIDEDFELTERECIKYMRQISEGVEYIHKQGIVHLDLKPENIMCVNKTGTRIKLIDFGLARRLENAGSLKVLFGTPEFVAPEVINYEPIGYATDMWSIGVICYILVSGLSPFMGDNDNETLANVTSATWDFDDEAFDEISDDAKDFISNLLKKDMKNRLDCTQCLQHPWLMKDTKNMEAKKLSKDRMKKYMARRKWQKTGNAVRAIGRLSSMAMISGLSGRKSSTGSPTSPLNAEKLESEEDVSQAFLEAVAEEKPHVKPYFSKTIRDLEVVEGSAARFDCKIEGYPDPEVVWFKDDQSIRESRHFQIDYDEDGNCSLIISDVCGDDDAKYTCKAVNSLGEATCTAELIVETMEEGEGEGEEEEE
The source made the active and inactive calls.
measured_property: Kd

| smiles | result |
| --- | --- |
| Cn1ncc(Cl)c1-c1cc(C(=O)N[C@H](CN)Cc2cccc(F)c2)sc1Cl | > 30 µM (inactive) |
| COc1cc(OC)c(/C=C/S(=O)(=O)Cc2ccc(OC)c(NCC(=O)O)c2)c(OC)c1 | > 30 µM (inactive) |
| CNC(=O)c1cc(Oc2ccc(NC(=O)Nc3ccc(Cl)c(C(F)(F)F)c3)c(F)c2)ccn1 | > 30 µM (inactive) |

Record CC(C)Nc1cc(-c2c[nH]c(C(=O)N[C@H](CO)c3cccc(Cl)c3)c2)c(Cl)cn1 , field Kd: > 30 µM (inactive)

----------
What follows is a collection of Kd values obtained with ATP-dependent RNA helicase DDX42 (Homo sapiens).
Sequence (Q86XP3 whole entry): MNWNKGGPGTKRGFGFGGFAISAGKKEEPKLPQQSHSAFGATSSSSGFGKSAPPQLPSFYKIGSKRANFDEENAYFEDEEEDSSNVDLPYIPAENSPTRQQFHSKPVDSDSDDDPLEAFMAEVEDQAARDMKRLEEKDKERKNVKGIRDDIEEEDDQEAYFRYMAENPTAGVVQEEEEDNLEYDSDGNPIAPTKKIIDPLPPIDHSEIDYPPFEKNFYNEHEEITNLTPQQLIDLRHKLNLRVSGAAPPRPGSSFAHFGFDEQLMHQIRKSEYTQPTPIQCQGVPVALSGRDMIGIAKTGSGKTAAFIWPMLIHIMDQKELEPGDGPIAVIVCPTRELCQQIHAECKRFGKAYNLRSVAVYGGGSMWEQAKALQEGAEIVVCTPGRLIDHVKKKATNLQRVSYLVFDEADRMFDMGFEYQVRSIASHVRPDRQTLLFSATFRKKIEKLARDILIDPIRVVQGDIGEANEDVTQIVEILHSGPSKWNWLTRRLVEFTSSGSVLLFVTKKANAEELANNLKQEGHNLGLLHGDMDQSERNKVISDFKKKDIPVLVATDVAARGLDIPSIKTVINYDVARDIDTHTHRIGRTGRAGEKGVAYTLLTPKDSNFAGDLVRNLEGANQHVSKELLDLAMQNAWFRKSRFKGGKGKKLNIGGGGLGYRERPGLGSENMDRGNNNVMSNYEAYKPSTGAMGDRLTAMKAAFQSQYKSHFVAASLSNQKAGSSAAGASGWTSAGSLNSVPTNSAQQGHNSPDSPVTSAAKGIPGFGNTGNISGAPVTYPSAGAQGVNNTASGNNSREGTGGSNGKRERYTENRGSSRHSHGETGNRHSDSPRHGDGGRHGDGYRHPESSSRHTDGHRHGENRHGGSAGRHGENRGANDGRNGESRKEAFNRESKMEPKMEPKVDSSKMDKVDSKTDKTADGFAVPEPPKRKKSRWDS
Active and inactive are the calls of the source.

Examples with their reported Kd follow.
| compound | result |
| --- | --- |
| Cc1ccc(NC(=O)c2ccc(CN3CC[C@H](N(C)C)C3)c(C(F)(F)F)c2)cc1Nc1nccc(-c2cncnc2)n1 [BAFETINIB] | > 30 µM (inactive) |
| COc1cc(N2CCC(N3CCN(C)CC3)CC2)ccc1Nc1ncnc(Nc2ccccc2S(=O)(=O)C(C)C)n1 [ASP-3026] | > 30 µM (inactive) |
| O=C(c1ccc(F)c(F)c1Nc1ccc(I)cc1F)N1CC(O)([C@@H]2CCCCN2)C1 [COBIMETINIB] | > 30 µM (inactive) |

The record that follows has no Kd shown yet.
Record CNS(=O)(=O)Nc1nccc(Cc2c(C)c3ccc(Oc4ncccn4)cc3oc2=O)c1F [AVUTOMETINIB] , field Kd: > 30 µM (inactive)

----------
# target_desc: UniProt:P11274
# Sequence (P11274 whole entry): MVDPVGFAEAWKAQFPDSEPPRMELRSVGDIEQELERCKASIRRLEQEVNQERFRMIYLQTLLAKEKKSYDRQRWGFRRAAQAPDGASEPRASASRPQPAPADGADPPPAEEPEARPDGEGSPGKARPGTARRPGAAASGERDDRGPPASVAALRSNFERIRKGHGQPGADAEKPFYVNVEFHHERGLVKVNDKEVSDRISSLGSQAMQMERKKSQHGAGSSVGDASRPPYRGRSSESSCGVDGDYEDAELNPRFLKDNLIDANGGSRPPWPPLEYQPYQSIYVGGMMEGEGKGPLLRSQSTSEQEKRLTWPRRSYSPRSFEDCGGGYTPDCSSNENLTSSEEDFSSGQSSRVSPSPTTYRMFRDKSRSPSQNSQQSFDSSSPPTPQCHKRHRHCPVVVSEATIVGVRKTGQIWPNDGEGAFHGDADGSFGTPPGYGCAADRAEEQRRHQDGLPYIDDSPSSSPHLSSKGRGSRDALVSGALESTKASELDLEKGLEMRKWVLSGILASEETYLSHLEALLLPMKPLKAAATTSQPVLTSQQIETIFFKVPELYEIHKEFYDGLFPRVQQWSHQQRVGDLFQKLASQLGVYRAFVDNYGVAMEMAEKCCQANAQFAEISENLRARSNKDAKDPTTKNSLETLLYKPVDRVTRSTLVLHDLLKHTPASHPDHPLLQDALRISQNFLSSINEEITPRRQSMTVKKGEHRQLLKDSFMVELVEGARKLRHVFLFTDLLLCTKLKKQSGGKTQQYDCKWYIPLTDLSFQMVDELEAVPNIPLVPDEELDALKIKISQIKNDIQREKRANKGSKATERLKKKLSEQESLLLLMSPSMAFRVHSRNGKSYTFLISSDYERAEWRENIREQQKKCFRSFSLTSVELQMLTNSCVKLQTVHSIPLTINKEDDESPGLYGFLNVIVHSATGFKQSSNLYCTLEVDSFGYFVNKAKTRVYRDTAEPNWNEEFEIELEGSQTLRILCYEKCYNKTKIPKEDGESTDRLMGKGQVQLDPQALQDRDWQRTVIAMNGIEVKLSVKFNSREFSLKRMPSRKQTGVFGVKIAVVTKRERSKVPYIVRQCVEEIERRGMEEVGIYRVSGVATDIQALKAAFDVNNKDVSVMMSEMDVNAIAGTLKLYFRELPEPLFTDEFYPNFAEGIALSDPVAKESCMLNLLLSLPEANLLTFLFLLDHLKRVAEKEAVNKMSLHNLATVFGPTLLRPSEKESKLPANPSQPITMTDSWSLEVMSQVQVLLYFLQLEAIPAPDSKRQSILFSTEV
Activity calls are given as the source filed them.
Classes to choose from: active, inactive

| molecule | cat |
| --- | --- |
| CO[C@H]1C[C@@H]2CC[C@@H](C)[C@@](O)(O2)C(=O)C(=O)N2CCCC[C@H]2C(=O)O[C@H]([C@H](C)C[C@@H]2CC[C@@H](OCCO)[C@H](OC)C2)CC(=O)[C@H](C)/C=C(\C)[C@@H](O)[C@@H](OC)C(=O)[C@H](C)C[C@H](C)/C=C/C=C/C=C/1C | inactive |
| N[C@@H]1CCCN(c2c(/C=C3\SC(=O)NC3=O)cccc2-c2ccccc2)C1 | inactive |
| CC[C@H](Nc1ncnc2[nH]cnc12)c1nc2cccc(F)c2c(=O)n1-c1ccccc1 | inactive |
| CCS(=O)(=O)N1CC(CC#N)(n2cc(-c3ncnc4[nH]ccc34)cn2)C1 | inactive |
| Cc1cc2c(F)c(Oc3ncnn4cc(OC[C@@H](C)OC(=O)[C@H](C)N)c(C)c34)ccc2[nH]1 [BRIVANIB ALANINATE] | inactive |

Q: How did this test come out for O=C(c1ccc(F)c(F)c1Nc1ccc(I)cc1F)N1CC(O)([C@@H]2CCCCN2)C1 ?
Ans: inactive

Q: How did this test come out for Cc1ccc(-n2nc(C(C)(C)C)cc2NC(=O)NCc2cc(F)ccc2Oc2ccc3c(cnn3CCO)c2)cc1 ?
Ans: active
